# reported Tmax; entries follow
- experiment.description: Tmax in Sprague-Dawley rat at 5 mg/kg,po measured up to 24 hrs by LC-MS/MS analysis
- Assay type: ADME, organism-based
- conditions: in vivo
parameter.measured: Tmax (min)

>>> print(df.to_string())
                                smiles_code  endpoint_result
0  CC1(C(=O)NS(=O)(=O)c2ccc(Cl)s2)CCN(c2nc3c(cc2C#N)C(=O)OC3)CC1               15
1  N#Cc1cc2c(nc1N1CCC(F)(C(=O)NS(=O)(=O)Cc3ccccc3)CC1)COC2=O               15
2  Cc1ccc(CS(=O)(=O)NC(=O)C2(C)CCN(c3nc4c(cc3C#N)C(=O)OC4)CC2)cc1               15
3  CC1(C(=O)NS(=O)(=O)Cc2ccc(Cl)cc2)CCN(c2nc3c(cc2C#N)C(=O)OC3)CC1               15
4  N#Cc1cc2c(nc1N1CCC(C(=O)NS(=O)(=O)Cc3ccccc3)CC1)COC2=O               15
5  N#Cc1cc2c(nc1N1CCC(C(=O)NS(=O)(=O)c3ccc(Cl)s3)CC1)COC2=O               15

====

- experiment.description: Metabolic stability in human liver microsomes assessed as half life at […] measured up to 60 mins in presence of NADPH regeneration system by LC-MS/MS analysis
- Assay type: ADME, Microsome
parameter.measured: half-life (h)

In [3]: df
Out[3]:
                                smiles_code  endpoint_result
0  N#Cc1cc2c(nc1N1CCC(C(=O)NS(=O)(=O)Cc3ccccc3)CC1)COC2=O             1.35
1  N#Cc1cc2c(nc1N1CCC(C(=O)NS(=O)(=O)c3ccc(Cl)s3)CC1)COC2=O             1.32
2  Cc1ccc(CS(=O)(=O)NC(=O)C2(C)CCN(c3nc4c(cc3C#N)C(=O)OC4)CC2)cc1             3.47
3  CC1(C(=O)NS(=O)(=O)c2ccc(Cl)s2)CCN(c2nc3c(cc2C#N)C(=O)OC3)CC1              3.4

====

# reported pIC50; entries follow
- Organism: Homo sapiens
- experiment.description: Antiplatelet activity in human platelet-rich plasma assessed as inhibition of ADP-induced platelet aggregation by aggregometry
- Assay type: functional
pIC50: −log10 of the molar value.
parameter.measured: pIC50

>>> print(df.to_string())
                                   molecule  parameter_measured  endpoint_result
0  N#Cc1ccc(CS(=O)(=O)NC(=O)C2CCN(c3nc4c(cc3C#N)C(=O)OC4)CC2)cc1               pIC50             5.05
1  CC1(C(=O)NS(=O)(=O)Cc2ccc(F)cc2F)CCN(c2nc3c(cc2C#N)C(=O)OC3)CC1               pIC50             5.06
2  CC(c1ccccc1)S(=O)(=O)NC(=O)C1(F)CCN(c2nc3c(cc2C#N)C(=O)OC3)CC1 (stereo not drawn)               pIC50             5.00
